All values here come from patent US20210300992A1.

Each entry below carries its recorded Score (binding score).
# experimentalSystem: T1, human leukemia inhibitory factor (LIF), soluble (human, UniProt P15018 23-202)
# T1 construct: also called human LIF; soluble human LIF
# T1 sequence (P15018 23-202 limits assumed): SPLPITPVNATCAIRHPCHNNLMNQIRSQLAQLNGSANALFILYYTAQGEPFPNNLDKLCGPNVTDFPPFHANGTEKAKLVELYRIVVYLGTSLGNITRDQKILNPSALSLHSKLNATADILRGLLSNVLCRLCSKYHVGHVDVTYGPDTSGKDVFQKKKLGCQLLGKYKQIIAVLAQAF
# assayName: yeast surface display, flow cytometry; Score column of the table of sorted gp130 CBM variants (the filing gives 100 pM and 1 nM human LIF for the gp130 binding scores)
Please state the value as a number alone, without comment.

// known answers, use as guide
[
  {
    "binder": "ELDSM (receptor, 5 mutations, all marked) yeast-displayed receptor fragment: LPPEKPKNLSCIVNEGKKMRCEWDRGRETHLETNFTLKSEWATHELADCKAKRDTPTSCTVDYSTVYFVNIEVWVEAENALGKVTSDHINFDPVDKVKPSPPHNLSVINSEELSSILKLTWTNPSIKSVMILKYNIQYRTKDASTWSQIPPEDTASTRSSFTVQDLKPFTEYVFRIRCMKEDGKGYWSDWSEEASGITYED",
    "value": 21.9
  },
  {
    "binder": "EDE (receptor, 3 mutations, all marked) yeast-displayed receptor fragment: LPPEKPKNLSCIVNEGKKMRCEWDRGRETHLETNFTLKSEWATHEFADCKAKRDTPTSCTVDYSTVYFVNIEVWVEAENALGKVTSDHINFDPVDKVKPNPPHNLSVINSEELSSILKLTWTNPSIKSVIILKYNIQYRTKDASTWSQIPPEDTASTRSSFTVQDLKPFTEYVFRIRCMKEDGEGYWSDWSEEASGITYED",
    "value": 23
  },
  {
    "binder": "8M (receptor, 8 mutations, all marked; also called 8M (Rnd 1); E4K-K5R-N14D-K45E-F46L-K83R-Y95D-N100S) yeast-displayed receptor fragment: LPPKRPKNLSCIVDEGKKMRCEWDRGRETHLETNFTLKSEWATHELADCKAKRDTPTSCTVDYSTVYFVNIEVWVEAENALGRVTSDHINFDPVDKVKPSPPHNLSVINSEELSSILKLTWTNPSIKSVIILKYNIQYRTKDASTWSQIPPEDTASTRSSFTVQDLKPFTEYVFRIRCMKEDGKGYWSDWSEEASGITYED",
    "value": 16
  },
  {
    "binder": "wild-type human gp130 CBM domain displayed on the surface of yeast (receptor, also called gp130 wild-type (WT); wild-type gp130) LPPEKPKNLSCIVNEGKKMRCEWDRGRETHLETNFTLKSEWATHKFADCKAKRDTPTSCTVDYSTVYFVNIEVWVEAENALGKVTSDHINFDPVYKVKPNPPHNLSVINSEELSSILKLTWTNPSIKSVIILKYNIQYRTKDASTWSQIPPEDTASTRSSFTVQDLKPFTEYVFRIRCMKEDGKGYWSDWSEEASGITYED",
    "value": 1.03
  }
]

Data request: In one line, give reported Score (binding score) of the entry ELRDM (receptor, 5 mutations, all marked) yeast-displayed receptor fragment: LPPEKPKNLSCIVNEGKKMRCEWDRGRETHLETNFTLKSEWATHELADCKAKRDTPTSCTVDYSTVYFVNIEVWVEAENALGRVTSDHINFDPVDKVKPNPPHNLSVINSEELSSILKLTWTNPSIKSVMILKYNIQYRTKDASTWSQIPPEDTASTRSSFTVQDLKPFTEYVFRIRCMKEDGKGYWSDWSEEASGITYED .
Data returned: 22.1
